Below, each entry is listed with its recorded IC50.
Target: Gastrin/cholecystokinin type B receptor (Cavia porcellus, UniProt H0VZC5)
Sequence (H0VZC5 1-426): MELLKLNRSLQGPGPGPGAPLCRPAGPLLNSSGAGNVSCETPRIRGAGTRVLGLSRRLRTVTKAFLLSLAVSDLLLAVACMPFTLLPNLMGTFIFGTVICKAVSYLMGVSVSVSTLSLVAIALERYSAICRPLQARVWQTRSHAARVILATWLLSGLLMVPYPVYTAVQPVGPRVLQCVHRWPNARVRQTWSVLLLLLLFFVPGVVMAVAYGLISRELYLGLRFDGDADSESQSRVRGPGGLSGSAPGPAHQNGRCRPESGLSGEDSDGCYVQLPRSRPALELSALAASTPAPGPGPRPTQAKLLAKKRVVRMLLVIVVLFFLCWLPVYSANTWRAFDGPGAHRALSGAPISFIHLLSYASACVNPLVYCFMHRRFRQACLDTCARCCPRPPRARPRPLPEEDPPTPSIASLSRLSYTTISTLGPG
Provide only the numeric value, understood in µM.

CC(C)C[C@@H](NC(=O)c1ccccc1NC(=O)c1cc2ccccc2[nH]1)C(=O)O : 14.7

**Q:** Quote Gastrin/cholecystokinin type B receptor (Cavia porcellus, UniProt H0VZC5) IC50 for entry CSCC[C@@H](NC(=O)c1ccccc1NC(=O)c1cc2ccccc2[nH]1)C(=O)O .
**A:** 11.4

###

Molecular target: Cholecystokinin receptor type A (Rattus norvegicus)
Sequence (P30551 whole entry): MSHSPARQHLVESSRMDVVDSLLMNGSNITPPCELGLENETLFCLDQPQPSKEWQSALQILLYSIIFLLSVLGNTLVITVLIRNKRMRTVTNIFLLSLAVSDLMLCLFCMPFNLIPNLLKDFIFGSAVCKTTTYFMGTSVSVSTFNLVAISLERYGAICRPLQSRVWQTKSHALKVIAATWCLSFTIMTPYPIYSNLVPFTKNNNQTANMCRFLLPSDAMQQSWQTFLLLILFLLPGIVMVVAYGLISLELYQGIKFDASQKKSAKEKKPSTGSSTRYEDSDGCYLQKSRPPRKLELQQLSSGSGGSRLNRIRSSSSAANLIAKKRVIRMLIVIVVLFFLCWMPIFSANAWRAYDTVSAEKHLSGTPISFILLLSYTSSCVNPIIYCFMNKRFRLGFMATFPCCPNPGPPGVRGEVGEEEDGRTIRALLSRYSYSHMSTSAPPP
assayMetric: pIC50
Quick note: pIC50 means taking -log10 of the concentration in moles per liter.

Some solved entries appear below for comparison.
O=C(Nc1ccccc1C(=O)NC(Cc1ccccc1)C(=O)O)c1cc2ccccc2[nH]1 (centres undefined) : 6.71
CSCC[C@@H](NC(=O)c1ccccc1NC(=O)c1cc2ccccc2[nH]1)C(=O)O : 7.57
CSCCC(NC(=O)c1ccccc1NC(=O)c1cc2ccccc2[nH]1)C(=O)O (centres undefined) : 7.28

Please find the next molecule below.
**Q:** Specify reported pIC50 for the molecule shown: O=C(Nc1ccccc1C(=O)NC(Cc1ccc(O)cc1)C(=O)O)c1cc2ccccc2[nH]1 (racemic)
**A:** 5.69
